From: paper PMC11696749

Method summary: In vitro cytotoxicity test on MRC-5 cells (resazurin)
Format: cell-based, human
Measurement conditions: human, MRC-5 primary fetal lung fibroblast cells, pH 7.4, MRC-5 cells, 72 h incubation, resazurin; two independent experiments
Measured property: CC50 at 72 h (µM)
Provide the reading as a plain figure in µM.

CN1CCC(Nc2nccc(-c3ccccn3)n2)C(Cc2ccccc2)C1 (stereo not drawn): 48.4
Cc1cc(C)nc(-n2nc(C)c3c2NC(=O)CC3c2ccc3c(c2)OCO3)n1 (stereo not drawn): 145

Next compound, CC50 at 72 h to be filled in.
Query: # get_value(readout='CC50 at 72 h', item= Fc1ccc(OCc2nc3cc(Cl)ccc3[nH]2)cc1 )
Reply: 40.7

###

System: L. infantum (MHOM/BR/2002/LPC-RPV) promastigotes
Method summary: In vitro antileishmanial activity against promastigotes (resazurin)
Type: cell-based, Leishmania infantum
Measurement conditions: Leishmania infantum, 48 h, 48 h at 28 °C, three independent experiments
Measured property: log10 IC50 (log10 of the value in µM)
Recorded IC50 (log10, µM)

// solved cases for log10 IC50 follow
Cc1ccc(C2CC(=O)Nc3c2c(C)nn3-c2nc(C)cc(C)n2)cc1 (centres unmarked) [LC-37]: 1.19
CN1CCC(Nc2nccc(-c3ccccn3)n2)C(Cc2ccccc2)C1 (centres unmarked) [LC-26]: 1.08
Fc1ccc(OCc2nc3cc(Cl)ccc3[nH]2)cc1 [LC-31]: 0.65
C[C@@H]1[C@H](O)[C@@H](C)/C=C/C=C/C=C/C=C/C=C/C=C/C=C/[C@H](O[C@@H]2O[C@H](C)[C@@H](O)[C@H](N)[C@@H]2O)C[C@@H]2O[C@](O)(C[C@@H](O)C[C@@H](O)[C@H](O)CC[C@@H](O)C[C@@H](O)CC(=O)O[C@H]1C)C[C@H](O)[C@H]2C(=O)O [Amphotericin B, reference compound]: -1.10

Next molecule, log10 IC50 to be filled in.
Query: # get_value(readout='log10 IC50', item= O=C(Nc1ccc(Cl)c(-c2nc3ncccc3o2)c1)c1cccs1 [LC-15] )
Reply: 0.18

###

Test system: L. infantum (MHOM/BR/2002/LPC-RPV) promastigotes
Method summary: In vitro antileishmanial activity against promastigotes (resazurin)
Type: cell-based, Leishmania infantum
Measurement conditions: Leishmania infantum, 48 h, 48 h at 28 °C, three independent experiments
Measured property: IC50

Cc1cc(NCc2ccncc2C)nc(N2CCCCC2)n1: > 100 µM
Cc1nc(O)cc(C2CCN(c3nccc(-c4ccccn4)n3)CC2)n1: > 100 µM

Next compound, IC50 to be filled in.
Query: # get_value(readout='IC50', item= Cc1cc(C)nc(-n2nc(C)c3c2NC(=O)CC3c2ccc3c(c2)OCO3)n1 (stereo not drawn) )
Reply: 17.1 µM

###

Listed molecules paired with reported CC50 at 72 h
Method summary: In vitro cytotoxicity test on MRC-5 cells (resazurin)
Type: cell-based, human
Measurement conditions: human, MRC-5 primary fetal lung fibroblast cells, pH 7.4, MRC-5 cells, 72 h incubation, resazurin; two independent experiments

// solved cases for CC50 at 72 h follow
Cc1ccc(C2CC(=O)Nc3c2c(C)nn3-c2nc(C)cc(C)n2)cc1 (stereo not drawn): > 250 µM
O=C(Nc1ccc(Cl)c(-c2nc3ncccc3o2)c1)c1cccs1: > 32.4 µM

Next molecule, CC50 at 72 h to be filled in.
Query: # get_value(readout='CC50 at 72 h', item= C[C@@H]1[C@H](O)[C@@H](C)/C=C/C=C/C=C/C=C/C=C/C=C/C=C/[C@H](O[C@@H]2O[C@H](C)[C@@H](O)[C@H](N)[C@@H]2O)C[C@@H]2O[C@](O)(C[C@@H](O)C[C@@H](O)[C@H](O)CC[C@@H](O)C[C@@H](O)CC(=O)O[C@H]1C)C[C@H](O)[C@H]2C(=O)O [Amphotericin B, reference compound] )
Reply: > 0.67 µM
